system: MS2 coat protein; test: apparent Kd, MS2 coat protein; higher = weaker binding; RNA-MaP array; theophylline 2 mM where present; settings: ligand present: theophylline; designed as: OFF switch for theophylline
Param threshold (0.2 µM) applies to apparent Kd; output yes (1) when value >= threshold, no (0) when value < threshold.

Example cases with answers are listed next.
AUAACAUGAGGAUCACCCAUGUAAGCAGAUACCAGCUAGGAAACUAGCCCUUGGCAGCUGCAAGGUGAUCCUAAUGCAGCUGCAA: no (0)
UAUAGUGUGAUGGAUACCAGCAGAGAAAACGUUUAUCCUAACAUGAGGAUCACCCAUGUAUGCCCUUGGCAGCUGUUGUGUUAUA: no (0)

Please look at the following sequence next.
Q. Does CGGUUUGUGAUGGAUACCAGCAGAGAAAAUGUUUAUCCUAACAUGAGGAUCACCCAUGUGUGCCCUUGGCAGCUGUUGUGGGCUG have a reported apparent Kd of at least 0.2 µM?
A. no (0)

---

system: MS2 coat protein; assay: apparent Kd, MS2 coat protein; higher = weaker binding; RNA-MaP array; FMN 200 µM where present; settings: ligand present: flavin mononucleotide; designed as: OFF switch for flavin mononucleotide
measure: apparent Kd (nM)
Give your result in nM as a bare value.

Q. Which apparent Kd value is on record for UGUGGUGGUUAGGAUAUAAUUAGAGGUUACUCGUUAGAAGGAGCUACAUGAGGAUCACCCAUGUGACUGUCCGC ?
A. 35.1

Q. Next up: UUUUAACAUGAGGAUCACCCAUGUGAGGAUAUCGAAAUUUAUAUUUAUAUUAAUAUAUCGAGAAGGCACAUUUU
A. 144

Q. Next up: GGAUAGGACAGAGGAUAUACGUGCUAGAGAUACUAGCAAAAUUUUCUCACAUGAGGAUCACCCAUGUAGAAGGCUGUCCUAUCG
A. 17.4

---

apparent Kd: recorded values
test system: MS2 coat protein; assay: apparent Kd, MS2 coat protein; higher = weaker binding; RNA-MaP array; FMN 200 µM where present; conditions: designed as: OFF switch for flavin mononucleotide; no ligand

The examples below pair each entry with its known result.
AAGAAGUCAGGAUAUGCAUGGCGGGACUUGCGUCGUGGCGUGCAGAAGGGACAUGAGGAUCACCCAUGUAAAGA: 49.4 nM
AGAUGGUGAUGUUAUCUUCGUCGGACAUGAGGAUCACCCAUGUAGGAUAUGCUACUAAAAUAGUAGCAGAAGGACAUGUAUCUU: 104 nM

// below: apparent Kd requested for another sequence
Q. Which apparent Kd value is on record for CCUCCACAUGAGGAUCACCCAUGUCAGGAUAUCGUGUGCGCGUUUUCGGUCUUUCGCGCGAGAAGGGACGUCUG ?
A. 26.9 nM

---

system: MS2 coat protein; test: apparent Kd, MS2 coat protein; higher = weaker binding; RNA-MaP array; theophylline 2 mM where present; settings: designed as: ON switch for theophylline; no ligand
measure: apparent Kd (nM)
Give your result in nM as a bare value.

The examples below pair each entry with its known result.
UUUACAUGAGGAUCACCCAUGUGCCAUGAUACCAGACAUGAAAAUGUCCCUUGGCAGCAUGAGUGAUGCAUCCGAAAGGAUGUUU: 81.6
GCUGUAAGUGCAGAUACCAGCAAGUGAUAUUUCAUAUGACAUGAGGAUCACCCAUGUAACUGCCCUUGGCAGCUGCACUUACAGC: 213
GCACUACAUGAGGAUCACCCAUGUGCAGAUACCAGAGGUGUAUGCCUCCCUUGGCAGCUGAGUAGCUCUGGAGGCCUAUUGGUUU: 15

// below: apparent Kd requested for another sequence
Q. Which apparent Kd value is on record for UGAUCCUACAGAGAUACCAGUGCCACUGAGUGACCAGACACAUGAGGAUCACCCAUGUAACACCCUUGGCAGCUCAACUAGAGGG ?
A. 20.4
